Target under test: T1, cynomolgus BTLA expressed on HEK-293 cells (cynomolgus, UniProt A0A2K5W7M7 31-289)
T1 construct: whole, on cells; also called Cyno BTLA
T1 sequence (A0A2K5W7M7 entry or part of it): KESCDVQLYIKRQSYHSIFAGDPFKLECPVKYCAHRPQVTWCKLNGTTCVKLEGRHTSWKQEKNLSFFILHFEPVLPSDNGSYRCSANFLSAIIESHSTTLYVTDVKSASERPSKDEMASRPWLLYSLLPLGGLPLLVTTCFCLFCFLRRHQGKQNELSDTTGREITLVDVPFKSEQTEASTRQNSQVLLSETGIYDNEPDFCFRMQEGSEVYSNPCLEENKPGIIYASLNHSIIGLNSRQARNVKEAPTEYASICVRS
Procedure summary: flow cytometry on HEK 293 cells expressing BTLA (MFI)
pEC50: −log10 of the molar value.
Measured quantity: pEC50

binder="anti-BTLA antibody 13-F7A (antibody, V domains shown) VH: EVQLLESGGGLVQPGGSLRLSCAASGFTSSSYGMSWVRQAPGKGLEWVSGISGSGGGTYYADSVKGRFTISRDNSKNTLYLQMNSLRAEDTAVYYCAKGDYYGSGSYPLFDYWGQGTLVTVSS VL: AIQLTQSPSSLSASVGDRVTITCRASQDISSALAWYQQKPGKAPKLLISDASSLESGVPSRFSGSGSGTDFTLTISSLQPEDFATFYCQQFNNYPPTFGPGTKVDIK" reported_measurement=8.59
